Target: Recombinant human DGAT2 protein (Homo sapiens)
Construct: FLAG (DYKDDDDK); (N); made in house; host or cells: Sf-21 insect cells (BacPAK baculovirus system); used as a membrane preparation
Sequence (Q96PD7 whole entry): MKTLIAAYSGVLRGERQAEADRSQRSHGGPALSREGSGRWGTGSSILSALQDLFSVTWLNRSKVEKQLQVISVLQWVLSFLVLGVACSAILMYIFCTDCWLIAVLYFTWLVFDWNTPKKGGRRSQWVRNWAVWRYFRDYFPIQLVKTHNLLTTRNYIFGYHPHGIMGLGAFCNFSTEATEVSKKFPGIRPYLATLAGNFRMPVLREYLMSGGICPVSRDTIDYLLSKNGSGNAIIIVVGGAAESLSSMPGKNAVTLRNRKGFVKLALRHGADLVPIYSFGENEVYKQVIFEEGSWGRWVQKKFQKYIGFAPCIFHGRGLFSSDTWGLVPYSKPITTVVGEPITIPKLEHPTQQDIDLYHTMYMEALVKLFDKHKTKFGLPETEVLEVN
Assay: Measurement of inhibitory effect against DGAT2 enzyme activity (SPA, Phospholipid FlashPlate, [14C]-TG production)
Type: biochemical
Conditions: concentration inhibiting [14C]-labeled triacyl glycerol (TG) production by 50%; 2 μg DGAT2-membrane protein from Sf-21 cells, 37° C.
MEASURED PARAMETER: IC50 (nM)

Worked set:
COMPOUND: CCOc1ccccc1O[C@@H]1CCCN(c2cncc(NC(=O)C(C)(C)c3ccc(CCC(=O)O)cc3)n2)C1
MEASURED PARAMETER: IC50
RESULT VALUE: 310
//
COMPOUND: CCOc1cccnc1O[C@@H]1CCCN(c2cncc(NC(=O)CCc3ccc(C(C)(C)C(=O)O)cc3)n2)C1
MEASURED PARAMETER: IC50
RESULT VALUE: 35
//
COMPOUND: CCOc1ccccc1O[C@@H]1CCCN(c2cncc(NC(=O)CCc3ccc(OC(C)(C)C(=O)O)cc3)n2)C1
MEASURED PARAMETER: IC50
RESULT VALUE: 420

(1) CCOc1ccccc1O[C@@H]1CCCN(c2cncc(NC(=O)Cc3ccc(CC(N)=O)cc3)n2)C1
(2) CCOc1ccccc1O[C@@H]1CCCN(c2cncc(NC(=O)Cc3ccc(C(C)(C)C(=O)O)cc3)n2)C1
Input line: Decide: 1 or 2 , by lowest recorded IC50. Answer by stating the label of the chosen item.
Output line: 1

(a) CCOc1ccccc1O[C@@H]1CCCN(c2cncc(NC(=O)COc3ccc(C(C)C(=O)O)cc3)n2)C1 (stereo partly shown)
(b) CCOc1ccccc1O[C@@H]1CCCN(c2cncc(NC(=O)C(C)(C)c3ccc(CC(C)(C)C(=O)O)cc3)n2)C1
Input line: Decide: a or b , by lowest recorded IC50. Answer by stating the label of the chosen item.
Output line: b
(b: 76 nM, a: 320 nM)

Ref: patent US12637440B2
